- System: ACHN
- method: NCI tumour cell line growth inhibition, 48 h
Calls of active or inactive are those of the source. Cut-off read from the data, not from the text of the source: active = GI50 up to about 1.1 µM and inactive = higher.
Parameter call: string, one of 1 (yes) for active, 0 (no) for inactive

1. COc1cc(/C=N/c2ccccn2)cc(OC)c1OC = 0 (no)
2. CN(C)CCNC(=O)c1cccc2cc3ccc4ccccc4c3nc12 = 1 (yes)
3. CC(=N/NC(=S)N(C)C)/C(=N\NC(=S)N(C)C)c1ccccc1 = 0 (no)

Please share the test call associated with Cc1ccc(S(=O)(=O)C(C#N)c2nc3ccccc3nc2-n2cccn2)cc1 (configuration not stated) .
0 (no)

I'd appreciate the recorded outcome for C=C1C(C(O)C[C@H](C)C2O[C@@]3(CCCCO3)CCC2C)O[C@@H]2CCC3(CCC(/C=C/[C@@H](C)C4CC(C)=CC5(O4)O[C@H](C[C@](C)(O)C(=O)O)CCC5O)O3)OC2[C@@H]1O (some centres not stated) from this test.
1 (yes)

Per the assay record, what outcome was assigned to "COC(=O)Nc1nc2ccccc2[nH]1" ?
0 (no)

Lab log entry: "O=c1[nH]c2c(S)nc(O)nc2n1-c1ccccc1" — outcome as called in the assay?
0 (no)

Dear colleague, could you share the recorded outcome for "CCCNc1c(Cl)cc(Cl)c2[nH]c3ccccc3c(=O)c12" when you have a moment?
0 (no)

What outcome does the record of this test show for Cc1ccc([N+](=O)[O-])cc1NC(=O)C(=O)C1CCC2=C(Sc3ccccc3N2)C1=O (configuration not stated) ?
0 (no)

Assay outcome for CC1=C2c3ccccc3N(S(=O)(=O)c3ccccc3)[C@H]2[C@H](C(=O)N2C3CC4CC[C@@]3(CS2(=O)=O)C4(C)C)CC1 (some centres not stated) : what was it?
0 (no)

---

Items are presented alongside their recorded GI50.
- Test system: EKVX
- method: NCI tumour cell line growth inhibition, 48 h
Active and inactive are the calls of the source. No stated cut-off is given here; in the data, active = GI50 up to about 1.1 µM and inactive = higher.

1) O=Cc1c[nH]c2c(=O)[nH]cnc12 = > 100 µM (inactive)
2) O=C(NC(=O)c1ccccc1[N+](=O)[O-])Nc1ccc(Oc2ncc(Cl)cn2)c([N+](=O)[O-])c1 = 2.93 µM (inactive)
3) COc1nc(Cl)c(Cl)c(Cl)n1.COc1nc(Cl)nc(Cl)c1Cl = 0.381 µM (active)
4) CC(=O)OC1COC(Nn2c(=O)[nH]c3ccccc3c2=O)C(OC(C)=O)C1OC(C)=O (stereo not given) = 36.1 µM (inactive)
5) CCC1(OC(C)=O)C(=O)OCc2c1cc1n(c2=O)Cc2cc3ccccc3nc2-1 (stereo not given) = 12.8 µM (inactive)
6) COc1cccc(C2c3cc4c(cc3OC(NNc3ccccc3)C2C)OCO4)c1OC (stereo not given) = 3.45 µM (inactive)
7) COC(=O)C(C(=O)C(=O)Nc1ccccc1C)c1nc2ccc([N+](=O)[O-])cc2nc1O (stereo not given) = > 100 µM (inactive)
8) O=C(Cc1ccccc1)NCCCN(CCCCN(CCCNC(=O)Cc1ccccc1)C(=O)OCc1ccccc1)C(=O)OCc1ccccc1 = > 49.8 µM (inactive)
9) CC1(C)C(O)OC(O)C1(C)C (stereo not given) = > 100 µM (inactive)

Lab note: next compound to report on.
GI50 measured on "Cc1ccc(C)n2c1nc1cc3ccccc3cc12" = 64.6 µM (inactive)

---

- Test system: M14
- method: NCI tumour cell line growth inhibition, 48 h
Calls of active or inactive are those of the source. Rule as the data show it: active = GI50 up to about 1.1 µM and inactive = higher.
Each entry below carries its recorded GI50.

Look over these answered cases.
1. COc1cc2nncc(Sc3cnnc4ccccc34)c2cc1OC = 18 µM (inactive)
2. COC(=O)c1c(O)c2c(c3c1OC(C)(C)CC3)OC(C)(C)CC2 = 19.1 µM (inactive)
3. CCNC1(c2cccc(C)c2)OC(C)(C)c2cccc3cccc1c23 (stereo not given) = 17.8 µM (inactive)
4. O=[N+]([O-])c1ccc(C[S+]([O-])Cc2ccccc2)cc1 (stereo not given) = > 100 µM (inactive)

Continue with the compound presented below.
According to the records, this compound "Cc1c(/C=N\NC(=S)N(C)CCN(C)C(=S)N/N=C\c2c(C)n(C)n(-c3ccccc3)c2=O)c(=O)n(-c2ccccc2)n1C" displays GI50 of > 100 µM (inactive)
